Assay: Experimental measurement of the barriers to rotation (chiral HPLC)
Format: physicochemical
Conditions: calculated from kobs, Gibbs free energy equation
Endpoint Label: Barrier to Rotation (kcal/mol)

{"Compound": "COc1ccc(Br)c(-c2c(Cl)n(C3CCCC3)c3ncnc(N)c23)c1 (racemic) [Compound 1f]", "Result Unit": "kcal/mol", "Barrier to Rotation": 29.0}
{"Compound": "COc1ccc(Br)c(-c2c(Cl)n(C(C)(C)C)c3ncnc(N)c23)c1 (racemic) [Compound 2f]", "Result Unit": "kcal/mol", "Barrier to Rotation": 30.4}
{"Compound": "COc1ccc(Cl)c(-c2c(Cl)n(C(C)(C)C)c3ncnc(N)c23)c1 (racemic) [Compound 2e]", "Result Unit": "kcal/mol", "Barrier to Rotation": 28.6}
{"Compound": "COc1ccc(Cl)c(-c2c(Cl)n(C3CCCC3)c3ncnc(N)c23)c1 [Compound 1e]", "Result Unit": "kcal/mol", "Barrier to Rotation": 27.2}
